biological target: Hepatitis C virus serine protease, NS3/NS4A (Hepatitis C virus, UniProt A3EZI9+D2K2A8, D168A); assay: Inhibition of HCV genotype 1a NS3/4A protease D168A mutant using Ac-DE-Dap(QXL 520)-EE-Abu-psi-[COO]AS-C(5-FAMsp)-NH2 as substrate preincubated for 1 hr followed by substrate addition
Quantity: pKi
A value of pKi is the negative decimal logarithm of a concentration given in moles per litre.

Entry COc1ccc2nc(C(C)C)c(O[C@@H]3C[C@H]4C(=O)N[C@]5(C(=O)NS(=O)(=O)C6CC6)C[C@H]5/C=C\CCCCC[C@H](NC(=O)OC5CCCC5)C(=O)N4C3)nc2c1 ; pKi = 6.79

Entry COc1ccc2nc(C)c(O[C@@H]3C[C@H]4C(=O)N[C@]5(C(=O)NS(=O)(=O)C6(C)CC6)C[C@H]5/C=C\CCCCC[C@H](NC(=O)OC(C)(C)C)C(=O)N4C3)nc2c1 ; pKi = 7.28

Entry CCc1nc2ccc(OC)cc2nc1O[C@@H]1C[C@H]2C(=O)N[C@]3(C(=O)NS(=O)(=O)C4(C)CC4)C[C@H]3/C=C\CCCCC[C@H](NC(=O)OC3CCCC3)C(=O)N2C1 ; pKi = 7.26

Entry COc1ccc2nc(Cl)c(O[C@@H]3C[C@H]4C(=O)N[C@]5(C(=O)NS(=O)(=O)C6CC6)C[C@H]5/C=C\CCCCC[C@H](NC(=O)OC(C)(C)C)C(=O)N4C3)nc2c1 ; pKi = 7.40

Entry COc1ccc2nc(C(F)(F)F)c(O[C@@H]3C[C@H]4C(=O)N[C@]5(C(=O)NS(=O)(=O)C6(C)CC6)C[C@H]5/C=C\CCCCC[C@H](NC(=O)OC5CCCC5)C(=O)N4C3)nc2c1 ; pKi = 6.96

====

assay: Inhibition of HCV genotype 1a NS3/4A protease using Ac-DE-Dap(QXL 520)-EE-Abu-psi-[COO]AS-C(5-FAMsp)-NH2 as substrate preincubated for 1 hr followed by substrate addition; parameters: species or system Hepatitis C virus subtype 1a
Quantity: pKi
A value of pKi is the negative decimal logarithm of a concentration given in moles per litre.

Solved cases below.
{"Structure": "COc1ccc2nc(Cl)c(O[C@@H]3C[C@H]4C(=O)N[C@]5(C(=O)NS(=O)(=O)C6CC6)C[C@H]5/C=C\\CCCCC[C@H](NC(=O)OC5CCCC5)C(=O)N4C3)nc2c1", "pKi": 9.31}
{"Structure": "COc1ccc2nc(C(C)C)c(O[C@@H]3C[C@H]4C(=O)N[C@]5(C(=O)NS(=O)(=O)C6CC6)C[C@H]5/C=C\\CCCCC[C@H](NC(=O)OC(C)(C)C)C(=O)N4C3)nc2c1", "pKi": 8.37}
{"Structure": "COc1ccc2nc(C(C)C)c(O[C@@H]3C[C@H]4C(=O)N[C@]5(C(=O)NS(=O)(=O)C6(C)CC6)C[C@H]5/C=C\\CCCCC[C@H](NC(=O)OC(C)(C)C)C(=O)N4C3)nc2c1", "pKi": 9.24}

Entry COc1ccc2nc(C(F)(F)F)c(O[C@@H]3C[C@H]4C(=O)N[C@]5(C(=O)NS(=O)(=O)C6(C)CC6)C[C@H]5/C=C\CCCCC[C@H](NC(=O)OC5CCCC5)C(=O)N4C3)nc2c1 ; pKi = 8.09

Entry COc1ccc2nc(Cl)c(O[C@@H]3C[C@H]4C(=O)N[C@]5(C(=O)NS(=O)(=O)C6(C)CC6)C[C@H]5/C=C\CCCCC[C@H](NC(=O)OC5CCCC5)C(=O)N4C3)nc2c1 ; pKi = 9.36

====

target: Hepatitis C virus serine protease, NS3/NS4A (Hepatitis C virus, UniProt A3EZI9+D2K2A8, D168A); assay: Inhibition of HCV genotype 1a NS3/4A protease D168A mutant using Ac-DE-Dap(QXL 520)-EE-Abu-psi-[COO]AS-C(5-FAMsp)-NH2 as substrate preincubated for 1 hr followed by substrate addition
Quantity: pKi
A value of pKi is the negative decimal logarithm of a concentration given in moles per litre.

Entry COc1ccc2nc(C(F)(F)F)c(O[C@@H]3C[C@H]4C(=O)N[C@]5(C(=O)NS(=O)(=O)C6(C)CC6)C[C@H]5/C=C\CCCCC[C@H](NC(=O)OC(C)(C)C)C(=O)N4C3)nc2c1 ; pKi = 6.93

Entry COc1ccc2nc(C)c(O[C@@H]3C[C@H]4C(=O)N[C@]5(C(=O)NS(=O)(=O)C6CC6)C[C@H]5/C=C\CCCCC[C@H](NC(=O)OC(C)(C)C)C(=O)N4C3)nc2c1 ; pKi = 7.29

====

assay: Inhibition of HCV genotype 3a NS3/4A protease using Ac-DE-Dap(QXL520)-EE-Abu-psi-[COO]AS-C(5-FAMsp)-NH2 as substrate preincubated for 1 hr followed by substrate addition; design: species or system Hepatitis C virus subtype 3a
Quantity: pKi
A value of pKi is the negative decimal logarithm of a concentration given in moles per litre.

Solved cases below.
{"Structure": "CCc1nc2ccc(OC)cc2nc1O[C@@H]1C[C@H]2C(=O)N[C@]3(C(=O)NS(=O)(=O)C4CC4)C[C@H]3/C=C\\CCCCC[C@H](NC(=O)OC3CCCC3)C(=O)N2C1", "pKi": 6.68}
{"Structure": "COc1ccc2nc(C)c(O[C@@H]3C[C@H]4C(=O)N[C@]5(C(=O)NS(=O)(=O)C6CC6)C[C@H]5/C=C\\CCCCC[C@H](NC(=O)OC5CCCC5)C(=O)N4C3)nc2c1", "pKi": 6.83}
{"Structure": "COc1ccc2nc(C(F)(F)F)c(O[C@@H]3C[C@H]4C(=O)N[C@]5(C(=O)NS(=O)(=O)C6CC6)C[C@H]5/C=C\\CCCCC[C@H](NC(=O)OC5CCCC5)C(=O)N4C3)nc2c1", "pKi": 6.12}

Entry CCc1nc2ccc(OC)cc2nc1O[C@@H]1C[C@H]2C(=O)N[C@]3(C(=O)NS(=O)(=O)C4(C)CC4)C[C@H]3/C=C\CCCCC[C@H](NC(=O)OC(C)(C)C)C(=O)N2C1 ; pKi = 6.77

Entry COc1ccc2nc(C(F)(F)F)c(O[C@@H]3C[C@H]4C(=O)N[C@]5(C(=O)NS(=O)(=O)C6(C)CC6)C[C@H]5/C=C\CCCCC[C@H](NC(=O)OC(C)(C)C)C(=O)N4C3)nc2c1 ; pKi = 6.64

====

assay: Inhibition of HCV genotype 1a NS3/4A protease using Ac-DE-Dap(QXL 520)-EE-Abu-psi-[COO]AS-C(5-FAMsp)-NH2 as substrate preincubated for 1 hr followed by substrate addition; set-up: species or system Hepatitis C virus subtype 1a
Recorded Ki by entry
All answers are understood in nM, so give the number only.

Entry CCc1nc2ccc(OC)cc2nc1O[C@@H]1C[C@H]2C(=O)N[C@]3(C(=O)NS(=O)(=O)C4(C)CC4)C[C@H]3/C=C\CCCCC[C@H](NC(=O)OC3CCCC3)C(=O)N2C1 ; Ki = 1.37

Entry COc1ccc2nc(C)c(O[C@@H]3C[C@H]4C(=O)N[C@]5(C(=O)NS(=O)(=O)C6CC6)C[C@H]5/C=C\CCCCC[C@H](NC(=O)OC(C)(C)C)C(=O)N4C3)nc2c1 ; Ki = 3.4

Entry COc1ccc2nc(Cl)c(O[C@@H]3C[C@H]4C(=O)N[C@]5(C(=O)NS(=O)(=O)C6(C)CC6)C[C@H]5/C=C\CCCCC[C@H](NC(=O)OC(C)(C)C)C(=O)N4C3)nc2c1 ; Ki = 1.11

Entry COc1ccc2nc(C(C)C)c(O[C@@H]3C[C@H]4C(=O)N[C@]5(C(=O)NS(=O)(=O)C6(C)CC6)C[C@H]5/C=C\CCCCC[C@H](NC(=O)OC5CCCC5)C(=O)N4C3)nc2c1 ; Ki = 1.34

Entry COc1ccc2nc(C(F)(F)F)c(O[C@@H]3C[C@H]4C(=O)N[C@]5(C(=O)NS(=O)(=O)C6CC6)C[C@H]5/C=C\CCCCC[C@H](NC(=O)OC(C)(C)C)C(=O)N4C3)nc2c1 ; Ki = 13.3

Entry CCc1nc2ccccc2nc1O[C@@H]1C[C@H]2C(=O)N[C@]3(C(=O)NS(=O)(=O)C4CC4)C[C@H]3/C=C\CCCCC[C@H](NC(=O)OC(C)(C)C)C(=O)N2C1 ; Ki = 7.18

Entry COc1ccc2nc(C)c(O[C@@H]3C[C@H]4C(=O)N[C@]5(C(=O)NS(=O)(=O)C6(C)CC6)C[C@H]5/C=C\CCCCC[C@H](NC(=O)OC(C)(C)C)C(=O)N4C3)nc2c1 ; Ki = 3.6
